Target: T1, human IL-18 binding protein (IL-18BP) (human, UniProt O95998 31-194)
T1 construct: also called hu IL-18BP; hIL18BP
T1 sequence (looked up): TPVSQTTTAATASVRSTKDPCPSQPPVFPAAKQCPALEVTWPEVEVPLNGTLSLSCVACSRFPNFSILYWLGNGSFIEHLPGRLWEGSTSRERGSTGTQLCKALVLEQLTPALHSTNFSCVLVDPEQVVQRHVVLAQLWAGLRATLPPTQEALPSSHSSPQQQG
Experiment: Octet BLI
PROPERTY LABEL: log10 koff (log10 of the value in s⁻¹)

{"columns": ["BINDER", "log10 koff"],
 "data": [
  ["IL-18 variant G3R, K53S (ligand) YFRKLESKLSVIRNLNDQVLFIDQGNRPLFEDMTDSDMRDNAPRTIFIISMYSDSQPRGMAVTISVKSEKISTLSSENKIISFKEMNPPDNIKDTKSDIIFFQRSVPGHDNKMQFESSSYEGYFLASEKERDLFKLILKKEDELGDRSIMFTVQNED", -2.84],
  ["IL-18 variant G3E, K53S (ligand) YFEKLESKLSVIRNLNDQVLFIDQGNRPLFEDMTDSDMRDNAPRTIFIISMYSDSQPRGMAVTISVKSEKISTLSSENKIISFKEMNPPDNIKDTKSDIIFFQRSVPGHDNKMQFESSSYEGYFLASEKERDLFKLILKKEDELGDRSIMFTVQNED", -1.51],
  ["IL-18 variant G3A, K53S (ligand) YFAKLESKLSVIRNLNDQVLFIDQGNRPLFEDMTDSDMRDNAPRTIFIISMYSDSQPRGMAVTISVKSEKISTLSSENKIISFKEMNPPDNIKDTKSDIIFFQRSVPGHDNKMQFESSSYEGYFLASEKERDLFKLILKKEDELGDRSIMFTVQNED", -2.40],
  ["IL-18 variant G3T, K53S (ligand) YFTKLESKLSVIRNLNDQVLFIDQGNRPLFEDMTDSDMRDNAPRTIFIISMYSDSQPRGMAVTISVKSEKISTLSSENKIISFKEMNPPDNIKDTKSDIIFFQRSVPGHDNKMQFESSSYEGYFLASEKERDLFKLILKKEDELGDRSIMFTVQNED", -2.32],
  ["IL-18 variant G3F, N91E, K53S (ligand, also called G3F/K53S/N91E) YFFKLESKLSVIRNLNDQVLFIDQGNRPLFEDMTDSDMRDNAPRTIFIISMYSDSQPRGMAVTISVKSEKISTLSSENKIISFKEMNPPDEIKDTKSDIIFFQRSVPGHDNKMQFESSSYEGYFLASEKERDLFKLILKKEDELGDRSIMFTVQNED", -2.71],
  ["IL-18 variant G3F, K53S (ligand) YFFKLESKLSVIRNLNDQVLFIDQGNRPLFEDMTDSDMRDNAPRTIFIISMYSDSQPRGMAVTISVKSEKISTLSSENKIISFKEMNPPDNIKDTKSDIIFFQRSVPGHDNKMQFESSSYEGYFLASEKERDLFKLILKKEDELGDRSIMFTVQNED", -2.32],
  ["IL-18 variant G3R, N91S, K53A (ligand) YFRKLESKLSVIRNLNDQVLFIDQGNRPLFEDMTDSDMRDNAPRTIFIISMYADSQPRGMAVTISVKSEKISTLSSENKIISFKEMNPPDSIKDTKSDIIFFQRSVPGHDNKMQFESSSYEGYFLASEKERDLFKLILKKEDELGDRSIMFTVQNED", -3.79]
]}
